Entries and their measured fold induction at 500 µM follow.
# Test system: filaggrin
# TEST SUMMARY: Gene expression test using normal human epidermal keratinocytes (RT-PCR), filaggrin
# Format: cell-based
# REPORTED CONDITIONS: Keratinocyte, 500 μM, 48 hours, relative value to control, read-out: FLG (filaggrin) gene expression amount
QUANTITY MEASURED: fold induction at 500 µM

ENTRY SMILES: N[C@H](Cc1ccccc1)C(=O)O
ASSAY SYSTEM: filaggrin
QUANTITY MEASURED: fold induction at 500 µM
RESULT: 1.52
--
ENTRY SMILES: N[C@H](CC(=O)O)C(=O)O
ASSAY SYSTEM: filaggrin
QUANTITY MEASURED: fold induction at 500 µM
RESULT: 1.45
--
ENTRY SMILES: CC[C@H](C)[C@@H](N)C(=O)O
ASSAY SYSTEM: filaggrin
QUANTITY MEASURED: fold induction at 500 µM
RESULT: 1.21
--
ENTRY SMILES: NCCCC[C@@H](N)C(=O)O
ASSAY SYSTEM: filaggrin
QUANTITY MEASURED: fold induction at 500 µM
RESULT: 1.29
--
ENTRY SMILES: N[C@H](CCC(=O)O)C(=O)O
ASSAY SYSTEM: filaggrin
QUANTITY MEASURED: fold induction at 500 µM
RESULT: 1.69
--
ENTRY SMILES: C[C@@H](N)C(=O)O
ASSAY SYSTEM: filaggrin
QUANTITY MEASURED: fold induction at 500 µM
RESULT: 1.18
--
ENTRY SMILES: NC(=O)C[C@@H](N)C(=O)O
ASSAY SYSTEM: filaggrin
QUANTITY MEASURED: fold induction at 500 µM
RESULT: 1.55
--
ENTRY SMILES: N[C@H](Cc1c[nH]c2ccccc12)C(=O)O
ASSAY SYSTEM: filaggrin
QUANTITY MEASURED: fold induction at 500 µM
RESULT: 3.3

Data credit: patent US20200016058A1
